# Test system: LXRb:RXRa (NR concentration 270 nM, RXRa partner concentration 90 nM)
# TEST: PBM binding z-score (relative to random genomic background probes); higher = stronger binding; sequences stand for … in GC…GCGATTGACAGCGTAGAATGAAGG
Classification field: enter t for PBM binding z-score values not below 4, f for values below it.

SEQ STRING: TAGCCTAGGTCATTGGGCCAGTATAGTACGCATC
TESTED ON: LXRb:RXRa (NR concentration 270 nM, RXRa partner concentration 90 nM)
GROUP: f
--
SEQ STRING: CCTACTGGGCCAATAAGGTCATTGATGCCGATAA
TESTED ON: LXRb:RXRa (NR concentration 270 nM, RXRa partner concentration 90 nM)
GROUP: f
--
SEQ STRING: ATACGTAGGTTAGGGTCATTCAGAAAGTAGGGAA
TESTED ON: LXRb:RXRa (NR concentration 270 nM, RXRa partner concentration 90 nM)
GROUP: t
--
SEQ STRING: CTATTTAGGTTAAGGGGGTCATTCAGTTTGAAAG
TESTED ON: LXRb:RXRa (NR concentration 270 nM, RXRa partner concentration 90 nM)
GROUP: t
--
SEQ STRING: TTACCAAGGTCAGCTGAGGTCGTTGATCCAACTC
TESTED ON: LXRb:RXRa (NR concentration 270 nM, RXRa partner concentration 90 nM)
GROUP: t
--
SEQ STRING: CTATGTAGGTTAAGGGGGTCATTGAGTTTGAAAG
TESTED ON: LXRb:RXRa (NR concentration 270 nM, RXRa partner concentration 90 nM)
GROUP: t
--
SEQ STRING: ATCGAAAGGTCGCAGGTGAGTATACCCACCCGAA
TESTED ON: LXRb:RXRa (NR concentration 270 nM, RXRa partner concentration 90 nM)
GROUP: f
--
SEQ STRING: CCGAGTAGATTACGAGGGGGCATTCAGTGCGAAT
TESTED ON: LXRb:RXRa (NR concentration 270 nM, RXRa partner concentration 90 nM)
GROUP: f
--
SEQ STRING: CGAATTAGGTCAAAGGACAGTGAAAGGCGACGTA
TESTED ON: LXRb:RXRa (NR concentration 270 nM, RXRa partner concentration 90 nM)
GROUP: f
--
SEQ STRING: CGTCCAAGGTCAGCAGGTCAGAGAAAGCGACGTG
TESTED ON: LXRb:RXRa (NR concentration 270 nM, RXRa partner concentration 90 nM)
GROUP: f
--
SEQ STRING: CCTACTGGGCCATTCAGAGGTCATTGTTCATATG
TESTED ON: LXRb:RXRa (NR concentration 270 nM, RXRa partner concentration 90 nM)
GROUP: f
--
SEQ STRING: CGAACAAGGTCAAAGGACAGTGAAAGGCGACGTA
TESTED ON: LXRb:RXRa (NR concentration 270 nM, RXRa partner concentration 90 nM)
GROUP: t

====

Measured PBM binding z-score by item
# Test system: RARa:RXR (NR concentration 270 nM, RXRa partner concentration 90 nM)
# TEST: PBM binding z-score (relative to random genomic background probes); higher = stronger binding; sequences stand for … in GC…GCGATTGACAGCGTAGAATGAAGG

SEQ STRING: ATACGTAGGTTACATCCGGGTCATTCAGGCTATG
TESTED ON: RARa:RXR (NR concentration 270 nM, RXRa partner concentration 90 nM)
PBM binding z-score: 3.48
//
SEQ STRING: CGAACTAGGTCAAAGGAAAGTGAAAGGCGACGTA
TESTED ON: RARa:RXR (NR concentration 270 nM, RXRa partner concentration 90 nM)
PBM binding z-score: 1.65
//
SEQ STRING: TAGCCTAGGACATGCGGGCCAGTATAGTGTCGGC
TESTED ON: RARa:RXR (NR concentration 270 nM, RXRa partner concentration 90 nM)
PBM binding z-score: -0.797
//
SEQ STRING: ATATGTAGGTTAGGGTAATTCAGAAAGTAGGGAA
TESTED ON: RARa:RXR (NR concentration 270 nM, RXRa partner concentration 90 nM)
PBM binding z-score: 1.34
//
SEQ STRING: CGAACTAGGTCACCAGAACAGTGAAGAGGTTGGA
TESTED ON: RARa:RXR (NR concentration 270 nM, RXRa partner concentration 90 nM)
PBM binding z-score: 2.45
//
SEQ STRING: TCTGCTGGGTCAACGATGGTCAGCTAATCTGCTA
TESTED ON: RARa:RXR (NR concentration 270 nM, RXRa partner concentration 90 nM)
PBM binding z-score: 2.07
//
SEQ STRING: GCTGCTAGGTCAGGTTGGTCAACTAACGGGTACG
TESTED ON: RARa:RXR (NR concentration 270 nM, RXRa partner concentration 90 nM)
PBM binding z-score: 0.842
//
SEQ STRING: ATCGAAAGGTCGTGAGGTGAGTACACAGAAAGGC
TESTED ON: RARa:RXR (NR concentration 270 nM, RXRa partner concentration 90 nM)
PBM binding z-score: 4.33
//
SEQ STRING: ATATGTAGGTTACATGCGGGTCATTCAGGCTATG
TESTED ON: RARa:RXR (NR concentration 270 nM, RXRa partner concentration 90 nM)
PBM binding z-score: 3.24
//
SEQ STRING: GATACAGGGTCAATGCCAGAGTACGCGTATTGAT
TESTED ON: RARa:RXR (NR concentration 270 nM, RXRa partner concentration 90 nM)
PBM binding z-score: 3.59
//
SEQ STRING: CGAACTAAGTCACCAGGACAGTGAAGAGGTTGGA
TESTED ON: RARa:RXR (NR concentration 270 nM, RXRa partner concentration 90 nM)
PBM binding z-score: 0.00404
//
SEQ STRING: CCGTACGGGTCAAGGTTATAGCACGGGTGGTACG
TESTED ON: RARa:RXR (NR concentration 270 nM, RXRa partner concentration 90 nM)
PBM binding z-score: 4.49
//
SEQ STRING: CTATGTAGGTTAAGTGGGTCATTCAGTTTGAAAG
TESTED ON: RARa:RXR (NR concentration 270 nM, RXRa partner concentration 90 nM)
PBM binding z-score: 2.23
//
SEQ STRING: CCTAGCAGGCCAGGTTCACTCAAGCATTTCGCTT
TESTED ON: RARa:RXR (NR concentration 270 nM, RXRa partner concentration 90 nM)
PBM binding z-score: 0.488
//
SEQ STRING: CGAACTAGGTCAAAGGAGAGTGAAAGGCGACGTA
TESTED ON: RARa:RXR (NR concentration 270 nM, RXRa partner concentration 90 nM)
PBM binding z-score: 1.85
//
SEQ STRING: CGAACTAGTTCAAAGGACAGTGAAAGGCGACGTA
TESTED ON: RARa:RXR (NR concentration 270 nM, RXRa partner concentration 90 nM)
PBM binding z-score: 0.253
//
SEQ STRING: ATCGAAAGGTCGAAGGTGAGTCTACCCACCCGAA
TESTED ON: RARa:RXR (NR concentration 270 nM, RXRa partner concentration 90 nM)
PBM binding z-score: 4.57
//
SEQ STRING: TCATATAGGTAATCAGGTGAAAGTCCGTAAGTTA
TESTED ON: RARa:RXR (NR concentration 270 nM, RXRa partner concentration 90 nM)
PBM binding z-score: 1.14
//
SEQ STRING: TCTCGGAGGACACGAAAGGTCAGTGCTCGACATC
TESTED ON: RARa:RXR (NR concentration 270 nM, RXRa partner concentration 90 nM)
PBM binding z-score: 4.07
//
SEQ STRING: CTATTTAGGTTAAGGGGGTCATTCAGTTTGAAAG
TESTED ON: RARa:RXR (NR concentration 270 nM, RXRa partner concentration 90 nM)
PBM binding z-score: 5.84
//
SEQ STRING: ACTTACGGGTCAAGGAGGTTATAGCACGCGTATA
TESTED ON: RARa:RXR (NR concentration 270 nM, RXRa partner concentration 90 nM)
PBM binding z-score: 4.99
//
SEQ STRING: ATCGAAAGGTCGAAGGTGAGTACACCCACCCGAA
TESTED ON: RARa:RXR (NR concentration 270 nM, RXRa partner concentration 90 nM)
PBM binding z-score: 4.08
//
SEQ STRING: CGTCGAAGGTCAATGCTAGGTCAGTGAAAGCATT
TESTED ON: RARa:RXR (NR concentration 270 nM, RXRa partner concentration 90 nM)
PBM binding z-score: 6.43
//
SEQ STRING: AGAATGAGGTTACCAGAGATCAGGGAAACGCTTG
TESTED ON: RARa:RXR (NR concentration 270 nM, RXRa partner concentration 90 nM)
PBM binding z-score: 2.47
//
SEQ STRING: ACTCGGAGGATAAAGGTCAGAGCTACGCCAGTGA
TESTED ON: RARa:RXR (NR concentration 270 nM, RXRa partner concentration 90 nM)
PBM binding z-score: 4.24
//
SEQ STRING: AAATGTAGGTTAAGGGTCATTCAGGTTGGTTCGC
TESTED ON: RARa:RXR (NR concentration 270 nM, RXRa partner concentration 90 nM)
PBM binding z-score: 5.42
